# target of assay: tubulin covalently linked to a biotinylated stathmin-like peptide
# assay name: ELISA (off-rate estimation)
# condition: chain shown with the change; incubation with 100 nM soluble tubulin to prevent rebinding; 10 nM biotinylated peptide-coupled tubulin for coating; parent: est. 0.11; read off a plot
response for assorted binders
property label: response (AU)

| binder | observed measurement |
| --- | --- |
| DARPin D1 N158S (protein) MRGSHHHHHHGSDLGKKLLEAARAGQDDEVRILMANGADVNATDASGLTPLHLAATYGHLEIVEVLLKHGADVNAIDIMGSTPLHLAALIGHLEIVEVLLKHGADVNAVDTWGDTPLHLAAIMGHLEIVEVLLKHGADVNAQDKFGKTAFDISIDNGSEDLAEILQKLN | 0.14 |
| DARPin D1 N74S; I76S; I78L (protein) MRGSHHHHHHGSDLGKKLLEAARAGQDDEVRILMANGADVNATDASGLTPLHLAATYGHLEIVEVLLKHGADVSASDLMGSTPLHLAALIGHLEIVEVLLKHGADVNAVDTWGDTPLHLAAIMGHLEIVEVLLKHGADVNAQDKFGKTAFDISIDNGNEDLAEILQKLN | 0.18 |
| DARPin D1 I78L (protein) MRGSHHHHHHGSDLGKKLLEAARAGQDDEVRILMANGADVNATDASGLTPLHLAATYGHLEIVEVLLKHGADVNAIDLMGSTPLHLAALIGHLEIVEVLLKHGADVNAVDTWGDTPLHLAAIMGHLEIVEVLLKHGADVNAQDKFGKTAFDISIDNGNEDLAEILQKLN | 0.13 |
| DARPin D1 I152T (protein) MRGSHHHHHHGSDLGKKLLEAARAGQDDEVRILMANGADVNATDASGLTPLHLAATYGHLEIVEVLLKHGADVNAIDIMGSTPLHLAALIGHLEIVEVLLKHGADVNAVDTWGDTPLHLAAIMGHLEIVEVLLKHGADVNAQDKFGKTAFDTSIDNGNEDLAEILQKLN | 0.44 |

Data provenance is paper PMC4933879.
